Method: yeast display, Sf9 membrane polyspecificity reagent, FACS + sequencing; frameworks hold sequencing errors
Observed property: polyreactivity (PSR sort gate)

Use the examples below as a reference point.
Sequence	polyreactivity (PSR sort gate)
QVQLVESGGGLVQAGGSLRLSCAASGYIFEVNTMGWYIQAPGKERELVAAITSGGTTYYADSVKGRFTISRDNAKNTVYLQMNSLKPDDTAVYYCAALWSRRRSRPRFDYWGQGTQVTVSS	high polyreactivity
QVQLVESGGGLVQAGGSLRLSCPASGRTYASYAMGWYRQAPGKDRELVAAITSSGGSTYYADSVKGRFTISRDNAKNTVYLQMNSLKPEYTAVYYCAARSRYRGDSWGQGTQVTVSS	high polyreactivity
QVQHVESGGGLVQAGGSLRLSCAASGRTFNFNTMGWYRQAPGKERELVASITSGGSTNYADSVKGRFTISRDKAKNTVYLQMNSLKPVDTAVYYCATRTTTFWFDYWVQGTQVTVSS	low polyreactivity
QVQLVESGGGLVQAGGSLRLSCAASGRIFGGYAMGWYRQAPGKERELVAVITDGGSTNYADSVKGRFTISRDNAKNTVYLQMNSLKPEDTAVYYCAADSYGDEPPYDYWGQGTQVTVSS	low polyreactivity
QVQLVESGGGLVQAGGSLRLSCAASGLTFYRYAMGWYRQAPGKEMELVAAIRVSGNTYYADSVKGPFTISRDNAKNTVYLEMNCLKPEDTAVYYCAAKPYYFYGMDYWGQGTQVTVSS	high polyreactivity
QVQLVESGGGLVQAGGSLRLSCAASGLTFYSYAMGWYRQAPGKERELVAAISNTGGTNYADSVKGRFTISRDNAKNNVYFQMTSLKPEDTAVYYCNRTFYHYLYRGYGYWGQGTQVTVSS	low polyreactivity
QVQLVESGGGLVQAGGSLRLSCAASGRIFTIYAMGWYRQAPGKERELVAAITRGGNTNYADSVKGRFTISRDNAKNTVYLQMNSLKPEDTAVYDGAVGSRSWPYDYWGQGSQVTVSS	high polyreactivity
QVQLVESGGALVQAGGSLRLSCAAYGRIFLVYAMGWSRQAPGKEREMVAAISWSTGSTYYADSVKGRFTISRDNAKNTVYLQMNSLKPEDTAVYYCAAEPELDEYEHDYWGQGTQVTVSS	low polyreactivity
QVQLVESGGGLVQAGGSLRLSCAPSGRIFGTYAMGWYRQAPGKERELVASIRSRGGRTYYADSVKGRFTISRDNAKNTVYLQMNSLKPEDTAVYYCAADVGVYYYSFYYWGQGTQVTVSS	high polyreactivity
QVQLVESGGCLVQAGGTLRLSCDASGITFSRNTMGWYRQAPGKERELVAAITLRGGGRTYYADSVKGRFTISRDNAKNTDYLQLNSLNPEDTAVYYCARVYSSEKAYGYWGQGTQVTVSS	high polyreactivity

# context switch: different sequence, same polyreactivity (PSR sort gate)
Give polyreactivity (PSR sort gate) for `QVQLVESGGGLVQAGGSLRLSCAASGSIFFVYAMGWYRQAPGKERELVAAITWSGGRTYYADSVKGRFTISRDNAKNTVYLQMNSLKPEDTAVYYCAARKYSDYFTPRYYYWGQGTQVTVSS`
high polyreactivity

----------
Method: yeast display, Sf9 membrane polyspecificity reagent, FACS + sequencing; frameworks hold sequencing errors
Observed property: polyreactivity (PSR sort gate)

Example sequences with recorded polyreactivity (PSR sort gate):
Sequence	polyreactivity (PSR sort gate)
QVQLVESGGGLVQAGGSLRLSCAASGSIFKVYAMGWYRQAPGKERELVATISGSGGSTYYADSVKGRFTISRDNAKNTVYLQMNSLKPEDTAVYYCAAEVYVPDYFQHKFDVEYEYWGQGTQVTVSS	low polyreactivity
QVQLVESGGGLVQAGGSLRLSCASSGLTFGGYTMGLSRQAPGKERELVAAITSGGSTYYADSVKGRFTISRDNAKNTVYLQMNSLKPEDTAVYYCAARVRGWPVSKFGYWGQGTQVTVSS	high polyreactivity
QVQLVESGGGLVQAGGSLRLSCAASGSIFTYYTMGWYRPAPGKERELVAAIRWSAGRTYYADSVKGRFTISRDNAKNTVYLQMNSLKPEDTAVYYCAAAERLRHGLKFDYWGQGTQVTVSS	high polyreactivity
QDQLGESGGGLVQAGGSLRLSCPASGFTVSNNVMGWSRQAPGKERELVADITWSGDGTYYADSVKGRFTISRDNAKKSVYLQMNSLKTEDTAVYYCNARYGKEYDYWGQGTQVTVSS	low polyreactivity

Attention now turns to another entry.
For the sequence `QVQLVESGGGLVQAGRSLRLSCAASGFIFWSNTKGWYRQAPGKERELVAAISYSGARTYYADSVKGRFTISRDNAKNTVYLLMNSLKPEDTAVYDCAAYLWGTHDRMDYWGQGTQVTVSS` , give its measured polyreactivity (PSR sort gate) value.
high polyreactivity

----------
Method: yeast display, Sf9 membrane polyspecificity reagent, FACS + sequencing; frameworks hold sequencing errors

Sequence	polyreactivity (PSR sort gate)
QVQLVESGGGLGQAGASLRLSCAASGLTFRYYALGWYRQAPGKLMELVAAISSRGASTYYADSVKGRITISRDNAKNTVYLQMTSLKPEDTAVYYCAARYTGKYEREYNYWGQGTQVTVSS	high polyreactivity
QVQLVESGGGLVQAGGSLRLSCAASGRIFRKYTMGWYRQAPGKERELVAAISARGGSTYYADSVKGRFTISRDNAKNTVYLQMNSLKPEDTAVYYCTTSPIGNITYRYDYWGQGTQVTVSS	high polyreactivity

----------
Method: yeast display, Sf9 membrane polyspecificity reagent, FACS + sequencing; frameworks hold sequencing errors

Sequence	polyreactivity (PSR sort gate)
QFQRGESGGGLVQAGGSLRLSCAASGRLFYSYAMGGYRQAPGKERELVAAINSGDRTYYADSVKGRFTISRDNAKNTVYLQKNSLNPEDPAVYYCATRWFAFPWDEYNYWGQGSQVTVSS	low polyreactivity
QVQLVESGGVLVQSGGSLRLSCAASGLIFTWNAMGWYRQAPGKERELVAPISTGGSTSYADSVKGRFTISRDNAKNTVYLQMNSLKPEDTAVYYCARDSSIWSHGSWYDYWGQGTHVTVSS	low polyreactivity

----------
Method: yeast display, Sf9 membrane polyspecificity reagent, FACS + sequencing; frameworks hold sequencing errors
Observed property: polyreactivity (PSR sort gate)

Sequence	Experimental result
QVQLVESGGGLVQAGGSLRLSCAASGSIFLDYAMGWYRQAPGKERELVAAITSGGSTYYADSVKGRFTISRDNAKNTVYLQMNSLKPEDTAVYYCNDEYPQYKAGFYGYDYWGQGTQVTVSS	low polyreactivity
QDQLVESGGWLVQAGGTLRLSCAASGRILWFYAMGWYRQAPGKERELVASISGSGGSTFYADSVKGRFTISRDNAKNTVYLQMNRLKPEDTAVYYCAAYKEPYYEEYGYWGQGTQVTVSS	low polyreactivity
QVQLVESGGGLVQAGGSLRLICAASGSTFGFNAMGWYRQAPGKERELVAAITFSGGTTYYADSVKGRFTISRDNAKNTVYVQMNSLKPDDTAVYYCNAEWWYHYTGPFAPWGEDYWGQGTQVTVSS	low polyreactivity
QVQLVESGGGLVQAGGSLRLSCAASGRIFVPYVMGWYRQAPGKERELVASISDSDTSTYYADSVKGRFTISRDNAKNTVYLQMNSLKPEDSAVYYCNVDYWGQGTQVTVSS	low polyreactivity

Please supply the value of reported polyreactivity (PSR sort gate) for the item `QVQLVESGGGLVQAGGSLRLSCAACGFIFYYNAMGWYRQAHGKVRELVAAISSSAGSTYYADSVKGRFTISRDNAKNTVYLQMNSLKPEDTAVYDCAASRPPNTSNTGYGSWGQGTQVTVSS`
low polyreactivity

Report polyreactivity (PSR sort gate) for `QVQLVESGGGLVQAGGSLRLSCAPSGSIFPYYAMGWYRQAPGKERELVAAISGSDGTTYYADSVKGRFTISRDNAKNTVYLQMNSLKPEDTAVYYCAVELPELYYYFAYEYWGQGTQVTVSS`
high polyreactivity

For the sequence `QVQLVESGGGLVQAGGSLRLSCSASGSTFSAYVMGWYRQAPGKERKLVAAITRSGVSTYYADSVKGRFTISRDNAKNTVYLQMNSLKPEDTAVYYCNKRVGFLYKYDYWGQGTQVTVSS` , give its reported polyreactivity (PSR sort gate).
high polyreactivity

Give reported polyreactivity (PSR sort gate) value for `QVQLVESGGGLVQAGGSLRLSCAASGRIFQYYAMGWYRQAPGKEREFVAAITGRGTRTYADSVKGRFTISRDNAKYTVYLQMNSLKPEDTAVYYCAKPFHYGRSYRSKMDYWGQGTQVTVSS`
high polyreactivity

Please report polyreactivity (PSR sort gate) for the following sequence: `QVQLVESGGGLVQAGGSLRLSCAASGSIFKGNVMGWYRQAPGKERELVAAITWSGGSTYYADSVKGRFTISRDNAKNTVYLQMNSLKPEDTAVYYCNTDRYHRVDFDYWGQGTQVTVSS`
high polyreactivity

----------
Method: yeast display, Sf9 membrane polyspecificity reagent, FACS + sequencing; frameworks hold sequencing errors
Observed property: polyreactivity (PSR sort gate)

Sequence	Observed property	Experimental result
QVQLVESGGGLVQAGGSLRLSCAASGFILGYNAMGWYRQAPGKERELVADITFSGGGTNYADSVKGRFTISRDNAKNTVYLQMNSLKPEDTAVYYCNAAAFSQLRVRYDYWGQGTQVTVSS	polyreactivity (PSR sort gate)	low polyreactivity
QVQLVESGGGLVQAGGSLRLSCAASGLIFGYYAMGWYRQAPGKEREFVAAIDGSDGTTYYADSVKGRFTISRDNAKNTVYLQMNSLKPEDTAVYFCNADSSSYSSDLGYDYWGQGTQVTVSS	polyreactivity (PSR sort gate)	low polyreactivity
QVQLVESGGGLVQAGGSLRLSCAASGSIFFAYAMGRYRQAPGKERELVAAITSGVSTNYADSVKGRFTISRDNAKNTVYLQMNILKPEDTAVYFCNADFDYGFDAGVAVQVVINVYWGQGTEVTVSS	polyreactivity (PSR sort gate)	low polyreactivity

Numbers sourced from the nanobody polyreactivity screen of Harvey et al. (2022).
